Provenance of the data: paper PMC2893881

tgt: rhodesain (Trypanosoma brucei rhodesiense, UniProt Q95PM0)

>  <compound>
COc1ccc2c3c([nH]c2c1)C(C=C(C)C)N1C(=O)C2CCCN2C(=O)C1(O)C3O (stereo not shown) [Compound 20, 12,13-dihydroxyfumitremorgin C]

>  <tgt>
rhodesain (Trypanosoma brucei rhodesiense, UniProt Q95PM0)

>  <unitAbbrev>
µM

>  <IC50>
10.9

$$$$

###

tgt: rhodesain (Trypanosoma brucei rhodesiense)
procedureDetails: Cysteine protease inhibition assay, rhodesain
Format: biochemical
condition: rhodesain 4 nM, Z-Phe-Arg-AMC 10 μM, pH 5.5
assayReadout: IC50 (μM) Cysteine Protease rho (rhodesain)

>  <compound>
COc1ccc2c3c([nH]c2c1)C(C=C(C)C)N1C(=O)C2CCCN2C(=O)C1(O)C3O (centres unmarked) [Compound 20, 12,13-dihydroxyfumitremorgin C]

>  <experimentalResult>
binds to rhodesain

$$$$
>  <compound>
CS[C@]1(Cc2c[nH]c3ccccc23)NC(=O)[C@](CO)(SC)N(C)C1=O

>  <experimentalResult>
inactivity

$$$$
>  <compound>
CS[C@]1(CO)C(=O)N2[C@H]3C(=CC=C[C@@H]3O)C[C@@]2(SC)C(=O)N1C

>  <experimentalResult>
inactivity

$$$$
>  <compound>
CS[C@]1(CO)C(=O)N2c3c(O)cccc3C[C@@]2(SC)C(=O)N1C [Compound 4, dehydrobis(methylthio)gliotoxin]

>  <experimentalResult>
binds to rhodesain

$$$$
>  <compound>
CS[C@]1(CO)C(=O)N2[C@H]3C(=CC=C[C@@H]3OC(C)=O)C[C@@]2(SC)C(=O)N1C

>  <experimentalResult>
binds to rhodesain

$$$$
